Below, each entry is listed alongside its reported Ratio Ki.
Species: Homo sapiens
Assay: Selectivity index, ratio of Ki for human recombinant CB2 receptor to Ki for human recombinant CB1 receptor
Could you respond with only the numeric value?

Example compounds with recorded Ratio Ki:
**Query** Please report Ratio Ki for the following compound: `Cc1c(C(=O)NC2CCCCCC2)nn(-c2ccc(Cl)cc2Cl)c1-n1c(C)ccc1C`
**Result** 1.43

**Query** Please report Ratio Ki for the following compound: `Cc1c(C(=O)Nc2ccc(Cl)cc2)nn(-c2ccc(Cl)cc2Cl)c1-n1cccc1`
**Result** 0.67

**Query** Please report Ratio Ki for the following compound: `Cc1c(C(=O)NC2CCCCC2)nn(-c2ccc(Cl)c(Cl)c2)c1-n1cccc1`
**Result** 0.3

Let us move to another entry and its Ratio Ki.
**Query** Please report Ratio Ki for the following compound: `Cc1c(C(=O)NC2CCCC2)nn(-c2ccc(Cl)c(Cl)c2)c1-n1cccc1`
**Result** 0.24

* * *

Below, each entry is listed alongside its reported Ki.
Molecular target: Cannabinoid receptor 2 (Homo sapiens)
Test: Displacement of [3H]CP-55940 from human recombinant CB2 receptor expressed in HEK cells
Type: cell-based, HEK293
Write the number in nM without appending the unit.

Example compounds with recorded Ki:
**Query** Please report Ki for the following compound: `Cc1c(C(=O)NC23CC4CC(CC(C4)C2)C3)nn(-c2ccc(Cl)c(Cl)c2)c1-n1cccc1`
**Result** 20

**Query** Please report Ki for the following compound: `Cc1c(C(=O)NCCc2ccc(Cl)cc2Cl)nn(-c2ccc(F)cc2F)c1-n1cccc1`
**Result** 667

***
**Query** Please report Ki for the following compound: `Cc1c(C(=O)NC2CCCCCC2)nn(-c2ccc(F)cc2F)c1-n1c(C)ccc1C`
**Result** 110

**Query** Please report Ki for the following compound: `Cc1c(C(=O)NC2CCCCCC2)nn(-c2ccc(Cl)cc2Cl)c1-n1cccc1`
**Result** 20

**Query** Please report Ki for the following compound: `Cc1c(C(=O)NC2CCCC2)nn(-c2ccc(F)cc2F)c1-n1cccc1`
**Result** 1100

**Query** Please report Ki for the following compound: `Cc1c(C(=O)NCc2ccc(Cl)cc2)nn(-c2ccc(Cl)c(Cl)c2)c1-n1c(C)ccc1C`
**Result** 790

* * *

Below, each entry is listed alongside its reported Ki.
Target: Cannabinoid receptor 2 (Homo sapiens, UniProt P34972)
Sequence (P34972 whole entry): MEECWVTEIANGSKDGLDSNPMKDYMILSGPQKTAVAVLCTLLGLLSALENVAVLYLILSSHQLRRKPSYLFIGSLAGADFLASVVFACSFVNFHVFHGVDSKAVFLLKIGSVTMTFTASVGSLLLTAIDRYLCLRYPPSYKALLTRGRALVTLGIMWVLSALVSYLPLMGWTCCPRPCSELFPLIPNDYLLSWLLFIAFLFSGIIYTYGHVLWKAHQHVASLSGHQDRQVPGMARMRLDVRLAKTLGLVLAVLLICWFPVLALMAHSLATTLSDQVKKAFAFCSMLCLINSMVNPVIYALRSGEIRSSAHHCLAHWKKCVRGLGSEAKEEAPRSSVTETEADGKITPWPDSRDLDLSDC
Experiment: Displacement of [3H]CP-55940 from human recombinant CB2 receptor expressed in HEK cells
Write the number in nM without appending the unit.

Example compounds with recorded Ki:
**Query** Please report Ki for the following compound: `COc1cc(CNC(=O)c2nn(-c3ccc(F)cc3F)c(-n3c(C)ccc3C)c2C)c(Br)c(OC)c1OC`
**Result** 373

**Query** Please report Ki for the following compound: `Cc1c(C(=O)Nc2ccc(Cl)cc2)nn(-c2ccc(Cl)c(Cl)c2)c1-n1cccc1`
**Result** 790

**Query** Please report Ki for the following compound: `Cc1c(C(=O)NCc2ccc(Cl)cc2)nn(-c2ccc(Cl)cc2Cl)c1-n1cccc1`
**Result** 940

**Query** Please report Ki for the following compound: `Cc1c(C(=O)NC2CCCC2)nn(-c2ccc(F)cc2F)c1-n1c(C)ccc1C`
**Result** 900

***
**Query** Please report Ki for the following compound: `Cc1c(C(=O)N[C@H](C)C2CCCCC2)nn(-c2ccc(Cl)c(Cl)c2)c1-n1cccc1`
**Result** 1.6

* * *

Biological target: Cannabinoid receptor 2 (Homo sapiens)
Assay: Displacement of [3H]CP-55940 from human recombinant CB2 receptor expressed in HEK cells
Below, each entry is listed alongside its reported pKi.
Please report pKi as the negative decimal logarithm of the molar concentration, giving only the number.

**Query** Please report pKi for the following compound: `Cc1c(C(=O)NC2CCCCCC2)nn(-c2ccc(Cl)c(Cl)c2)c1-n1c(C)ccc1C`
**Result** 8.38

**Query** Please report pKi for the following compound: `COc1ccc(CCNC(=O)c2nn(-c3ccc(Cl)cc3Cl)c(-n3cccc3)c2C)cc1Cl`
**Result** 5.54

**Query** Please report pKi for the following compound: Cc1c(C(=O)NC(C)c2ccccc2)nn(-c2ccc(Cl)c(Cl)c2)c1-n1c(C)ccc1C (stereo not given)
**Result** 8.24

**Query** Please report pKi for the following compound: `Cc1c(C(=O)NC2CCCC2)nn(-c2ccc(Cl)c(Cl)c2)c1-n1cccc1`
**Result** 7.92

**Query** Please report pKi for the following compound: `Cc1c(C(=O)NC23CC4CC(CC(C4)C2)C3)nn(-c2ccc(Cl)c(Cl)c2)c1-n1c(C)ccc1C`
**Result** 7.92

* * *

Assay read-out pKi; system under study: Cannabinoid receptor 1 (Homo sapiens, UniProt P21554).
Sequence (P21554 whole entry): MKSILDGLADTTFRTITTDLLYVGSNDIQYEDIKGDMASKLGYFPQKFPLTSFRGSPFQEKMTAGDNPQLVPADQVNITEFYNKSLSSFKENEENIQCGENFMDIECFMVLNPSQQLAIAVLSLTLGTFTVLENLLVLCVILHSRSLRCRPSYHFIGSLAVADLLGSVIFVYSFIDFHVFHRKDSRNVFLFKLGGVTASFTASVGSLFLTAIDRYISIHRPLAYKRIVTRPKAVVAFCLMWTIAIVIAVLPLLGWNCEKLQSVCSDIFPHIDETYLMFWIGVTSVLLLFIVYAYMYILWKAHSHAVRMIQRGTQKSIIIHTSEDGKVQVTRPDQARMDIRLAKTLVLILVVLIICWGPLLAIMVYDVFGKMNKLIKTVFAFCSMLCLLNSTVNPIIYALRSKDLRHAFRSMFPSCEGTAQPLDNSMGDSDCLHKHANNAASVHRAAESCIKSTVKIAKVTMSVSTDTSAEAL
Please report pKi as the negative decimal logarithm of the molar concentration, giving only the number.

Example compounds with recorded pKi:
**Query** Report its pKi with Cannabinoid receptor 1 (Homo sapiens, UniProt P21554) as the test system: `Cc1c(C(=O)NCCc2ccc(Cl)c(Cl)c2)nn(-c2ccc(F)cc2F)c1-n1cccc1`
**Result** 6.51

**Query** Report its pKi with Cannabinoid receptor 1 (Homo sapiens, UniProt P21554) as the test system: `Cc1c(C(=O)NC23CC4CC(CC(C4)C2)C3)nn(-c2ccc(Cl)c(Cl)c2)c1-n1cccc1`
**Result** 7.51

**Query** Report its pKi with Cannabinoid receptor 1 (Homo sapiens, UniProt P21554) as the test system: `COc1ccc(CCNC(=O)c2nn(-c3ccc(F)cc3F)c(-n3c(C)ccc3C)c2C)cc1Cl`
**Result** 7.00

**Query** Report its pKi with Cannabinoid receptor 1 (Homo sapiens, UniProt P21554) as the test system: `Cc1c(C(=O)NCCc2ccc(Cl)cc2)nn(-c2ccc(F)cc2F)c1-n1c(C)ccc1C`
**Result** 7.30

**Query** Report its pKi with Cannabinoid receptor 1 (Homo sapiens, UniProt P21554) as the test system: `Cc1c(C(=O)NC2CCCC2)nn(-c2ccc(Cl)c(Cl)c2)c1-n1cccc1`
**Result** 7.30

***
**Query** Report its pKi with Cannabinoid receptor 1 (Homo sapiens, UniProt P21554) as the test system: `Cc1c(C(=O)NC2CCCC2)nn(-c2ccc(F)cc2F)c1-n1cccc1`
**Result** 5.62

**Query** Report its pKi with Cannabinoid receptor 1 (Homo sapiens, UniProt P21554) as the test system: `Cc1c(C(=O)Nc2ccc(Cl)cc2)nn(-c2ccc(Cl)c(Cl)c2)c1-n1cccc1`
**Result** 5.89

**Query** Report its pKi with Cannabinoid receptor 1 (Homo sapiens, UniProt P21554) as the test system: `Cc1c(C(=O)NCCc2ccc(Cl)c(Cl)c2)nn(-c2ccc(F)cc2F)c1-n1c(C)ccc1C`
**Result** 7.27

**Query** Report its pKi with Cannabinoid receptor 1 (Homo sapiens, UniProt P21554) as the test system: `Cc1c(C(=O)NC2CCCC2)nn(-c2ccc(F)cc2F)c1-n1c(C)ccc1C`
**Result** 6.08

**Query** Report its pKi with Cannabinoid receptor 1 (Homo sapiens, UniProt P21554) as the test system: `Cc1c(C(=O)N[C@@H](C)C2CCCCC2)nn(-c2ccc(Cl)c(Cl)c2)c1-n1cccc1`
**Result** 8.47

* * *

Below, each entry is listed alongside its reported Ratio Ki.
Species: Homo sapiens
Test: Selectivity index, ratio of Ki for human recombinant CB2 receptor to Ki for human recombinant CB1 receptor
Could you respond with only the numeric value?

Example compounds with recorded Ratio Ki:
**Query** Please report Ratio Ki for the following compound: `Cc1c(C(=O)N[C@@H](C)C2CCCCC2)nn(-c2ccc(Cl)c(Cl)c2)c1-n1cccc1`
**Result** 0.71

**Query** Please report Ratio Ki for the following compound: `Cc1c(C(=O)NC2CCCC2)nn(-c2ccc(F)cc2F)c1-n1cccc1`
**Result** 0.46

**Query** Please report Ratio Ki for the following compound: `Cc1c(C(=O)NCCc2ccc(Cl)c(Cl)c2)nn(-c2ccc(F)cc2F)c1-n1cccc1`
**Result** 4.16

**Query** Please report Ratio Ki for the following compound: `Cc1c(C(=O)NCc2ccc(Cl)cc2)nn(-c2ccc(Cl)cc2Cl)c1-n1cccc1`
**Result** 6.71

**Query** Please report Ratio Ki for the following compound: `Cc1c(C(=O)NCCc2ccc(Cl)cc2Cl)nn(-c2ccc(F)cc2F)c1-n1c(C)ccc1C`
**Result** 17.6

***
**Query** Please report Ratio Ki for the following compound: `COc1cc(CNC(=O)c2nn(-c3ccc(F)cc3F)c(-n3cccc3)c2C)c(Br)c(OC)c1OC`
**Result** 2.14

**Query** Please report Ratio Ki for the following compound: `Cc1c(C(=O)NC2CCCCCC2)nn(-c2ccc(Cl)c(Cl)c2)c1-n1c(C)ccc1C`
**Result** 0.35

**Query** Please report Ratio Ki for the following compound: `COc1cc(CNC(=O)c2nn(-c3ccc(Cl)cc3Cl)c(-n3c(C)ccc3C)c2C)c(Br)c(OC)c1OC`
**Result** 3.84

**Query** Please report Ratio Ki for the following compound: `Cc1c(C(=O)NC23CC4CC(CC(C4)C2)C3)nn(-c2ccc(Cl)c(Cl)c2)c1-n1c(C)ccc1C`
**Result** 2.14

**Query** Please report Ratio Ki for the following compound: `COc1ccc(CCNC(=O)c2nn(-c3ccc(Cl)cc3Cl)c(-n3c(C)ccc3C)c2C)cc1Cl`
**Result** 31.1
